All figures here come from patent US12065505B2.

- method_description: Competitive TR-FRET assay modified for mAbs and Fabs (T0, T24, T48)
- Format: binding
- recorded_conditions: 37° C.; IC50 shift at 48 hr relative to T0
Measured T48 hr IC50 shift values are reported for all entries that follow.
metric_name: T48 hr IC50 shift (nM)

molecule: 26D5-75203-343-B09-mAb: human IgG1f/kappa mAb; VH SEQ ID NO: 54, VL SEQ ID NO: 87 (antibody, V domains shown) VH: EVQLVESGGGLIQPGGSLRLSCAASGFTVSSNAMSWVRQAPGKGLEWVSYIYPGGRTYYADSVKGRFTISRDNSKNTLYLQMNSLRAEDTAVYYCARAGFGGGDYWGQGTLVTVSS VL: DIQMTQSPSSVSASVGDRVTITCRASQGISSNLAWYQQKPGKAPKLLIYAASTLQSGVPSRFSGSGSGTDFTLTISSLQPEDFATYYCQQANEFPLTFGGGTKVEIK
units_symbol: nM
readout_value: 0.5
--
molecule: 26D5-75214-343-F06-mAb: human IgG1f/kappa mAb; VH SEQ ID NO: 53, VL SEQ ID NO: 85 (antibody, V domains shown) VH: EVQLVESGGGLIQPGGSLRLSCAASGFTVSSNAMSWVRQAPGKGLEWVSFIYPGGRTYYADSVKGRFTISRDNSKNTLYLQMNSLRAEDTAVYYCARAGFGGPDYWGQGTLVTVSS VL: DIQMTQSPSSVSASVGDRVTITCRASQGISSNLAWYQQKPGKAPKLLIYAASSLQSGVPSRFSGSGSGTDFTLTISSLQPEDFATYYCQQANEFPLTFGGGTKVEIK
units_symbol: nM
readout_value: 1.4
--
molecule: 26D5-75229-343-A10-mAb: human IgG1f/kappa mAb; VH SEQ ID NO: 52, VL SEQ ID NO: 84 (antibody, V domains shown) VH: EVQLVESGGGLIQPGGSLRLSCAASGFTVSSNAMSWVRQAPGKGLEWVSYIYPGGRTYYADSVKGRFTISRDNSKNTLYLQMNSLRAEDTAVYYCARAGFGGPDYWGQGTLVTVSS VL: DIQMTQSPSSVSASVGDRVTITCRASQGISSNLAWYQQKPGKAPKLLIYAASSLQSGVPSRFSGSGSGTDFTLTISSLQPEDFATYYCQQANQFPLTFGGGTKVEIK
units_symbol: nM
readout_value: 1.1
--
molecule: 26D5-75202-343-A09-mAb: human IgG1f/kappa mAb; VH SEQ ID NO: 54, VL SEQ ID NO: 86 (antibody, V domains shown) VH: EVQLVESGGGLIQPGGSLRLSCAASGFTVSSNAMSWVRQAPGKGLEWVSYIYPGGRTYYADSVKGRFTISRDNSKNTLYLQMNSLRAEDTAVYYCARAGFGGGDYWGQGTLVTVSS VL: DIQMTQSPSSVSASVGDRVTITCRASQGIYSNLAWYQQKPGKAPKLLIYAASSLQSGVPSRFSGSGSGTDFTLTISSLQPEDFATYYCQQANEFPLTFGGGTKVEIK
units_symbol: nM
readout_value: 1.5
